Source listed as the nanobody polyreactivity screen of Harvey et al. (2022).

test_details: yeast display, Sf9 membrane polyspecificity reagent, FACS + sequencing; frameworks hold sequencing errors
measure: polyreactivity (PSR sort gate)

Recorded polyreactivity (PSR sort gate), per entry:
Ask | Item QVQLLESGGGLVQVGGSLRLSCAASGTIFIYGFLGWNRQAPGKERELVASINLGGITNYADSEKGRFTISRDNAINTGFLQMISLKPEDTAVYYCAAYVVTCQNYGYWGHGTQVTVSS has what recorded polyreactivity (PSR sort gate)?
Reply | low polyreactivity

Ask | Requested read-out: polyreactivity (PSR sort gate). Entry: QVQLVESGGGLVQAGGSLRLSCAPSGSTFFWYSMGWYRQAPGKERELVARISRRSGSTYYADSVKGRFTISRDNAKNTVYLQMNSLIPEDTAVYYCNARAVGAPGSVRYDYWGQGTQVTVSS
Reply | low polyreactivity

Ask | GET /values?readout=polyreactivity (PSR sort gate)&item= QVQLEESGGRLVQAGGSLRLSCAASGRTFGPYGMGWYRQAPGKESELDAAINGNGDSTYYADSVKGRFTISRDNAKNTVYLQMNSLKPEDTAVYYCASEGWPDYTSRLYDYWGQGTQVTVSS
Reply | low polyreactivity

Ask | Value lookup for polyreactivity (PSR sort gate); key = QVQLVESGGGLVQAGGSLRLSCAASGFIFGYYAMGWYRQAPGKERELVAAISSRGGSTYYADSVKGRFTISRDNAKNTVYLQMNSLKPEDTAVYYCAVRRVSFRHKFGQYDYWGQGTQVTVSA
Reply | high polyreactivity

Next:
Ask | Please look up its polyreactivity (PSR sort gate): QVQLEESGGGLVQAGGSLRLSCAASGRIFKRYAMGWYRQAPGKERELVAAITWSGTRTYYADSVKGRFTISRDNAKNTVYLQMNSLKPEDTAVYYCAADQKYHQRPSEYGYWGQGTQVTVSS
Reply | high polyreactivity
